Listing of log10 of IC50 toward 3',5'-cyclic-AMP phosphodiesterase 4B (Homo sapiens), each taken from a published source.
The base-10 logarithm of IC50, taken with IC50 in nM, is what appears here.

For orientation, consider the following solved cases.
> print(dat)
                                   compound  reported.value
1  COc1ccc(-c2nc(C(=O)N3CCCCC3)c(CN)o2)c2ccc(C(F)(F)F)nc12            1.69
2  COc1ccc(CNc2c(Cl)cncc2Cl)c2cc(C(F)(F)F)nn12            2.18
3  CC1(C)CCc2c(-c3ccco3)nc3sc4c(NCCN5CCOCC5)ncnc4c3c2C1            0.58
4  O=C(O)Cc1ccc(Nc2nc(-c3ccc4c(F)cccc4c3)nc3c2S(=O)(=O)CCC3)cc1            1.15

Next:
GET /value?item= CC(C)c1cc(-c2cccc(C(Cc3ccncc3)c3ccc(Cl)cc3)c2)c2ncccc2c1 (stereo not given) &field=log10 of IC50 returns 0.81
